- Test target: Phosphatidylinositol 5-phosphate 4-kinase type-2 alpha (Homo sapiens, UniProt P48426)
- Sequence (P48426 whole entry): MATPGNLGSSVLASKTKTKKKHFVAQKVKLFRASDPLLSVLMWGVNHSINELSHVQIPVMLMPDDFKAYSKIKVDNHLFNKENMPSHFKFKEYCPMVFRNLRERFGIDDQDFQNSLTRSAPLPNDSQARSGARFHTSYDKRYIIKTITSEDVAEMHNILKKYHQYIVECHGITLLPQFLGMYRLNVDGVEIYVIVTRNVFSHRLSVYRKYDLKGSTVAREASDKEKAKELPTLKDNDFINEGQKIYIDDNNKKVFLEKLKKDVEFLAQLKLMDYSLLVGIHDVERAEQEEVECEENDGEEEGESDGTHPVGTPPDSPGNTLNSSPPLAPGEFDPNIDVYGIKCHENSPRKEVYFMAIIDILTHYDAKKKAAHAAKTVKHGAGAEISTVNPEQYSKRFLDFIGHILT
- Method: Inhibition of PIP5K2A in human HeLa cells lysate pre incubated for 15 mins followed by ATP acyl phosphate probe addition and measured after 10 mins by LC-MS/MS analysis
- Type: subcellular
Value kind: IC50

# IC50 of `CCOc1cc(N2CCC(O)CC2)ccc1Nc1ncc2c(n1)N(C)c1ccccc1C(=O)N2C` = > 50 µM

* * *

- Test target: Serine/threonine-protein kinase greatwall (Homo sapiens, UniProt Q96GX5)
- Sequence (Q96GX5 whole entry): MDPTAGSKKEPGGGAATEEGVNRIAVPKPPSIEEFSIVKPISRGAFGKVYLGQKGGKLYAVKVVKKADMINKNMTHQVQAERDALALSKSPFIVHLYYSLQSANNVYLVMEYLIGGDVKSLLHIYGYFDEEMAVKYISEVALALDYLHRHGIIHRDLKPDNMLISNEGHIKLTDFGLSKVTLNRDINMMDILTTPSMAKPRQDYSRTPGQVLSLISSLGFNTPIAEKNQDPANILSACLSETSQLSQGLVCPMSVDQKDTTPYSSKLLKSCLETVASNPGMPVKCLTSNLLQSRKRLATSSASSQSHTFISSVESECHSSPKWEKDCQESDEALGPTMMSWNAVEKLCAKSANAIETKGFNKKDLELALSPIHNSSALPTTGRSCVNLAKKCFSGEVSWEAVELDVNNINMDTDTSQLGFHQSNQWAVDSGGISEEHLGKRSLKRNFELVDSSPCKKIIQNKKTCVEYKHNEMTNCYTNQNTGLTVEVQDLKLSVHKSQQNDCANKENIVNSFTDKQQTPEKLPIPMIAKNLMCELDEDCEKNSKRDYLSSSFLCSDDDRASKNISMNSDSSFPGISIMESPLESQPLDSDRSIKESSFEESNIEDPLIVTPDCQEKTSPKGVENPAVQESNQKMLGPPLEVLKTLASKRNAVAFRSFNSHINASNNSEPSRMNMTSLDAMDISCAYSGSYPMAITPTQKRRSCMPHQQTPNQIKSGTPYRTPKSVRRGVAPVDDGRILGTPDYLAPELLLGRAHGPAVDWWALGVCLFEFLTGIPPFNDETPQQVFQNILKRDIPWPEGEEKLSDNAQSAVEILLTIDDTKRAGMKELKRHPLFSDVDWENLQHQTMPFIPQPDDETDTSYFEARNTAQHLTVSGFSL
- Method: Inhibition of MASTL in human HeLa cells lysate pre incubated for 15 mins followed by ATP acyl phosphate probe addition and measured after 10 mins by LC-MS/MS analysis
Value kind: IC50

I looked up `CCOc1cc(N2CCC(O)CC2)ccc1Nc1ncc2c(n1)N(C)c1ccccc1C(=O)N2C` and its IC50 for Serine/threonine-protein kinase greatwall (Homo sapiens, UniProt Q96GX5) was > 50 µM

* * *

- Test target: Serine/threonine-protein kinase Nek3 (Homo sapiens, UniProt P51956)
- Sequence (P51956 whole entry): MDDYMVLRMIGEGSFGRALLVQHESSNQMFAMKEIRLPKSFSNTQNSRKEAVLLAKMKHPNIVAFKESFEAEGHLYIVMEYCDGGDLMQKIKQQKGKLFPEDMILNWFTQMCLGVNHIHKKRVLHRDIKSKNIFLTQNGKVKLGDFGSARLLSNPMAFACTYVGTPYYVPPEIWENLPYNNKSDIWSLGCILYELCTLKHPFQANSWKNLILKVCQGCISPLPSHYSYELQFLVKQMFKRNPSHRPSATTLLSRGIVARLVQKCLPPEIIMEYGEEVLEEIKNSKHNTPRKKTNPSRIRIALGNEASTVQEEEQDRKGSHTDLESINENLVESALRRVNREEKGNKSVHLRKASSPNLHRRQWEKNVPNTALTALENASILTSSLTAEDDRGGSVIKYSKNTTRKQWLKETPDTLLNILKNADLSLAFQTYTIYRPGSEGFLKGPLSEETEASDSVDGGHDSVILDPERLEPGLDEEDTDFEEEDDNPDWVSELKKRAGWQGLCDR
- Method: Inhibition of NEK3 in human HeLa cells lysate pre incubated for 15 mins followed by ADP acyl phosphate probe addition and measured after 10 mins by LC-MS/MS analysis
pIC50: −log10 of the molar value.
Value kind: pIC50

Query `CCOc1cc(N2CCC(O)CC2)ccc1Nc1ncc2c(n1)N(C)c1ccccc1C(=O)N2C` on Serine/threonine-protein kinase Nek3 (Homo sapiens, UniProt P51956); pIC50 returned: < 4.30

* * *

- Test target: Serine/threonine-protein kinase ULK2 (Homo sapiens, UniProt Q8IYT8)
- Sequence (Q8IYT8 whole entry): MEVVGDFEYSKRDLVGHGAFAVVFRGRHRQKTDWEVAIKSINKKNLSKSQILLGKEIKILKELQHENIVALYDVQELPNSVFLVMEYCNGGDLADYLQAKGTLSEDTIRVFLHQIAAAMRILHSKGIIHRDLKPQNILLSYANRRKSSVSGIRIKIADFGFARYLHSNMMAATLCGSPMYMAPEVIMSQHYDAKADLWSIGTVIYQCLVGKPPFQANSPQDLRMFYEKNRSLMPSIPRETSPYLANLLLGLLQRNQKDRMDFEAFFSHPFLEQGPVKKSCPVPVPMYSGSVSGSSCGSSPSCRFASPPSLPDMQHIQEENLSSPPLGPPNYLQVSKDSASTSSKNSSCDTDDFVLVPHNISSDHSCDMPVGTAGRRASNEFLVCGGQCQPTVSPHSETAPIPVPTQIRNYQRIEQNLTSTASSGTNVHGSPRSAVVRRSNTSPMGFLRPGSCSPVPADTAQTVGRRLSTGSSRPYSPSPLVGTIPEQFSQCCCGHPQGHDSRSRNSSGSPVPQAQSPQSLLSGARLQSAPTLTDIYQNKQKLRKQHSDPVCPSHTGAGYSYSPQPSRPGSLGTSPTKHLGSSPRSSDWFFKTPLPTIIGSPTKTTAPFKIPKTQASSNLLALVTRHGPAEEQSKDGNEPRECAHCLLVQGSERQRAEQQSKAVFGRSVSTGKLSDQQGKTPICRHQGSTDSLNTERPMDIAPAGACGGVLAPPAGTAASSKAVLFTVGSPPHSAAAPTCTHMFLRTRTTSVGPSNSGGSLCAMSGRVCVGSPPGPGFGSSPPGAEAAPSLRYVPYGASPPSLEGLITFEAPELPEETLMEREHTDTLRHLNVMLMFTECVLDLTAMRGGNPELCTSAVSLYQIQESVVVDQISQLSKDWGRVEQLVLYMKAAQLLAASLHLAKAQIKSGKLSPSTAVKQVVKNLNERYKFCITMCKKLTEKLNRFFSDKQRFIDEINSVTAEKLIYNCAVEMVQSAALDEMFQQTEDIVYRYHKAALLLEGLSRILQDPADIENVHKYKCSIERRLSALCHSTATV
- Method: Inhibition of ULK2 in human HeLa cells lysate pre incubated for 15 mins followed by ADP acyl phosphate probe addition and measured after 10 mins by LC-MS/MS analysis
Value kind: IC50

Value of measured IC50 for the entry `CCOc1cc(N2CCC(O)CC2)ccc1Nc1ncc2c(n1)N(C)c1ccccc1C(=O)N2C` : > 50 µM

* * *

- Test target: Serine/threonine-protein kinase LATS2 (Homo sapiens)
- Sequence (Q9NRM7 whole entry): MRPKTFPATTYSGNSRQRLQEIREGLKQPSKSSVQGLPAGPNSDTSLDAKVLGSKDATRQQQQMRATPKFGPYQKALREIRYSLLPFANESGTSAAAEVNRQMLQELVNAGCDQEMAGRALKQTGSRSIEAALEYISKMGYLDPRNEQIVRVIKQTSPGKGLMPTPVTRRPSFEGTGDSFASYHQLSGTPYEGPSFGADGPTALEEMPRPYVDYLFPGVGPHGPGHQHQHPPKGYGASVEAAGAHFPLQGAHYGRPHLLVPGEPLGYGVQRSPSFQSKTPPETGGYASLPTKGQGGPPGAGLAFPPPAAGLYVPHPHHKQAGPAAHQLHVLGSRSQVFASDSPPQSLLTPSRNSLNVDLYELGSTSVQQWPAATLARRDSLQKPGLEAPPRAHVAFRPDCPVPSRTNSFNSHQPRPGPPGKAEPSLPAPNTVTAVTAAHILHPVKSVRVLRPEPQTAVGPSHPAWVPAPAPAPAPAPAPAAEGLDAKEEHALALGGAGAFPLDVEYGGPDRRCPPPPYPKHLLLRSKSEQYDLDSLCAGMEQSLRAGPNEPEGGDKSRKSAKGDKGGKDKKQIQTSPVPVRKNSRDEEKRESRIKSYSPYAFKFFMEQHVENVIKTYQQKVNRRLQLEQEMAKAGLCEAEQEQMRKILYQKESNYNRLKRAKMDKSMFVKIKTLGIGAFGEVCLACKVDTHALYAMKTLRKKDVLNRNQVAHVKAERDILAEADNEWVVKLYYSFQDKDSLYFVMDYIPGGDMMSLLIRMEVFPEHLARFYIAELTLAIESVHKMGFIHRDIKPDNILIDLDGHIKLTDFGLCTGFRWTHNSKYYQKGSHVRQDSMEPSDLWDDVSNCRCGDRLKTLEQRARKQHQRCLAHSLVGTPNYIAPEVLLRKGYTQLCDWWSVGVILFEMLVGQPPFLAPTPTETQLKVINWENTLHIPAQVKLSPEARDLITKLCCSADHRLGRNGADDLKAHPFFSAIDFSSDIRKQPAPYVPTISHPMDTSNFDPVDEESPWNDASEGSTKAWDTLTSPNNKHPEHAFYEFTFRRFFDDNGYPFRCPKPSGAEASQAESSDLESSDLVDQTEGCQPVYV
- Method: Inhibition of LATS2 in human HeLa cells lysate pre incubated for 15 mins followed by ADP acyl phosphate probe addition and measured after 10 mins by LC-MS/MS analysis
Value kind: IC50

Item `CCOc1cc(N2CCC(O)CC2)ccc1Nc1ncc2c(n1)N(C)c1ccccc1C(=O)N2C` was tested on Serine/threonine-protein kinase LATS2 (Homo sapiens); the reported IC50 is > 50 µM
